- systemTested: Long-chain-fatty-acid--AMP ligase FadD28 (Mycobacterium tuberculosis, UniProt P9WQ59)
- Sequence (P9WQ59 whole entry): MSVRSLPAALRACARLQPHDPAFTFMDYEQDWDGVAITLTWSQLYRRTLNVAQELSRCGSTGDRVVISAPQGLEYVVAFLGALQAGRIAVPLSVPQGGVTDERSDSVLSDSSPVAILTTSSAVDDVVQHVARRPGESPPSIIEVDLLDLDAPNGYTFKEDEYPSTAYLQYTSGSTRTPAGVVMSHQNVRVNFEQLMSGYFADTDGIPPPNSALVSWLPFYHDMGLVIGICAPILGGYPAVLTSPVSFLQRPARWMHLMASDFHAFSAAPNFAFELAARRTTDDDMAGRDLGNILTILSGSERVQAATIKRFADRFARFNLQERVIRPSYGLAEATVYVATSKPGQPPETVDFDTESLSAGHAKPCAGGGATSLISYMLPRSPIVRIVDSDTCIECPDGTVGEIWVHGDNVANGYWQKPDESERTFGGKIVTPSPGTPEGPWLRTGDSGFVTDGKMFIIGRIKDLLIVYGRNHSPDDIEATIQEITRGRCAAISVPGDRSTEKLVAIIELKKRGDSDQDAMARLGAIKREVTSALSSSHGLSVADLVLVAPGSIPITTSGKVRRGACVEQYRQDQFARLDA
- assayMethodText: Fluorescence polarization aasay to screen for inhibitors that compete for the binding of FadD28 to a bisubstrate Measured in Biochemical System Using Plate Reader - 2147-01_Inhibitor_Dose_CherryPick_Activity.
- Assay type: functional, Mycobacterium tuberculosis H37Rv
Activity calls are given as the source filed them. How the calls were made is not given here.
propertyName: AC50

NS(=O)(=O)c1ccc(N=Nc2cnc(O)c(O)c2)cc1    22.8 µM (active)
COc1cc(/C=C2\CC/C(=C\c3cc(OC)c(O)c(OC)c3)C2=O)cc(OC)c1O    86.6 µM (active)
CCc1c(C(=O)NNC(=S)Nc2ccc(S(=O)(=O)Nc3ncccn3)cc2)csc1C    89.7 µM (active)

Then there is this compound:
The value of AC50 measured for the compound COc1ccc(/C=C/C(=O)N(C)Cc2cccs2)cc1S(=O)(=O)N1CCOCC1 turned out to be 42.6 µM (active)
